# measurement target: UniProt:Q06187
# experimental details: Btk kinase assay (HTRF)
# Format: biochemical
# condition summary: [ATP]=80 μM, BTK=3.4 nM; read-out: BTK Inhibition
pIC50: −log10 of the molar value.
The following molecules are shown together with reported pIC50 values.

Record summary for C=CC(=O)N1CCC[C@@H](n2nc(-c3ccc(N4CCC(N5CCCCC5)CC4)cc3)c3cnccc32)C1 [Compound 110] : reported pIC50 = 7.00 to 8.00

Per the records, this molecule ( C=CC(=O)N1CC[C@@H](n2nc(-c3ccc(Oc4cccc5ccccc45)cc3)c3cnccc32)C1 [Compound 7] ) has pIC50 equal to 7.00 to 8.00

Measured pIC50, C=CC(=O)N1CC[C@@H](n2nc(-c3ccc(Oc4cccc(OC)c4Cl)cc3)c3cncc(F)c32)C1 [Compound 68] : > 8.00

Lab note: C=CC(=O)N1CCC[C@@H](n2nc(-c3ccc(Oc4cccc(OC)c4F)cc3)c3c(C)nccc32)C1 [Compound 78] gave pIC50 of > 8.00

So, C=CC(=O)N1CC2(CC(n3nc(-c4ccc(Oc5cccc(OC)c5F)cc4)c4cnccc43)C2)C1 [Compound 26] ? Its pIC50 was > 8.00

Lab note: measured pIC50 of CCC(=O)N1CCC[C@@H](n2nc(-c3ccc(Oc4cccc(OC)c4F)cc3)c3cncc(OC)c32)C1 [Compound 89] was 6.00 to 7.00

In plain terms, C=CC(=O)N1CC[C@@H](n2nc(-c3ccc(Oc4cccc(C)c4C)cc3)c3cnccc32)C1 [Compound 12] has a documented pIC50 of 7.00 to 8.00

For record C=CC(=O)N1CCC[C@@H](n2nc3ccncc3c2-c2ccc(Oc3cccc(Cl)c3Cl)cc2)C1 [Compound 43] the listed pIC50 is > 8.00

The molecule listed as C=CC(=O)N1CCC[C@@H](n2nc(-c3ccc(Oc4cccc(OC)c4F)cc3)c3cncc(OCCCC)c32)C1 [Compound 76] shows pIC50 equal to > 8.00

Recorded pIC50 (molecule C=CC(=O)N1CCC[C@@H](n2nc(-c3ccc(Oc4cccc(C)c4C)cc3)c3cnccc32)C1 [Compound 24] ): > 8.00

// pIC50 value for C=CC(=O)N1CC[C@@H](n2nc(-c3ccc(Oc4ccccc4)c(F)c3)c3cnccc32)C1 [Compound 61] : > 8.00

GET /value?item= C=CC(=O)N1CCC[C@@H](n2nc(-c3ccc(Oc4cccc(OC)c4F)cc3)c3cnccc32)C1 [Compound 71] &field=pIC50 returns > 8.00

Kindly note the recorded pIC50 for C=CC(=O)N1CC[C@@H](n2nc3ccncc3c2-c2ccc(Oc3cccc(Cl)c3Cl)cc2)C1 [Compound 41] , which is > 8.00

// C=CC(=O)N1CCCC1Cn1nc(-c2ccc(Oc3cccc(OC)c3F)cc2)c2cncc(OC)c21 (stereo not drawn) [Compound 91] : pIC50 value = > 8.00

Lab book: pIC50 of COc1cccc(Oc2ccc(-c3nn([C@@H]4CCCN(C(=O)C(C)O)C4)c4c(OC)cncc34)cc2)c1F (stereo partly drawn) [Compound 118] noted as 7.00 to 8.00

---

# measurement target: BTK (Homo sapiens (Human), UniProt Q06187)
# Sequence (Q06187 whole entry, species assumed): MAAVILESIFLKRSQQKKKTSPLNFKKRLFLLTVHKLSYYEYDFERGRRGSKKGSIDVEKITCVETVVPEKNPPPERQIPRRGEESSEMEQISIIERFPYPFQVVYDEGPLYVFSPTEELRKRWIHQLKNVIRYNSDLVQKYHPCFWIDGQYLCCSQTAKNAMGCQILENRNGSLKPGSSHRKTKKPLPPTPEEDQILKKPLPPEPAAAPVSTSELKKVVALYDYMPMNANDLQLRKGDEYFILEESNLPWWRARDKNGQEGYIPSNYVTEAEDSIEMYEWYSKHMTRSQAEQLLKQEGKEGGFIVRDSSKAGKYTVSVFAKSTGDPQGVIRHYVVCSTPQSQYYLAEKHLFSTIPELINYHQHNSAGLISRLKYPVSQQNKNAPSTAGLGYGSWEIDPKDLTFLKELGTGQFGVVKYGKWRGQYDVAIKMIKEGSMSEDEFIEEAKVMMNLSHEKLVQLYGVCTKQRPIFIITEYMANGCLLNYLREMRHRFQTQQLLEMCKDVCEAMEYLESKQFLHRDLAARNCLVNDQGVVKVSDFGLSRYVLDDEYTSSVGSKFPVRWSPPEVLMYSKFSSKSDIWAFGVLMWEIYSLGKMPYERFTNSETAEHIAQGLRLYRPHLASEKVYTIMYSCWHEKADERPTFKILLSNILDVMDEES
# experimental details: Btk kinase assay (HTRF)
# Type: biochemical
# condition summary: [ATP]=80 μM, BTK=3.4 nM; read-out: BTK IC50
observable: IC50

{"record smiles": "C=CC(=O)N1CCC[C@@H](n2nc(-c3ccc(Oc4cccc(OC)c4F)cc3)c3cncc(OC)c32)C1", "IC50": "< 10 nM"}

Next:
get_value(item= C=CC(=O)N1CC[C@@H](n2nc(-c3ccc(Oc4ccccc4)cc3)c3cnccc32)C1 , readout=IC50) returns < 10 nM
